# Test system: CCRF-CEM leukemia
# experiment.notes: NCI-60 one-dose screen, 48 h
# condition.notes: 10 µM unless noted
This is part of a sample that, as a whole, favours compounds with a hit. Of some 83,000 tested, about 20% had one in any assay. Calls of active or inactive are those of the source. How the source made its calls: active means growth percent below 10; inactive means the rest.
Hi there, use one of these labels in your reply, thanks! YES for active, NO for inactive

compound=COc1cc(CNC(=O)/C=C/c2ccc3c(c2)OCO3)ccc1OCc1cn(-c2ccc([N+](=O)[O-])cc2)nn1 experimental_system="CCRF-CEM leukemia" class_assignment=NO
compound="CC12CC[C@@H]3[C@]4(C)COC(c5cn[nH]c5-c5ccc(Cl)cc5)O[C@@H]4CC[C@@]3(C)[C@@H]1CC(C1=CCOC1=O)O2 (stereo not given in full)" experimental_system="CCRF-CEM leukemia" class_assignment=NO
compound=Cc1ccc(C(SCCNCc2cc(N(C)C)ccn2)(c2ccccc2)c2ccccc2)cc1 experimental_system="CCRF-CEM leukemia" class_assignment=YES

Q) Status in this test for CC12CC[C@@H]3[C@]4(C)COC(c5cn[nH]c5-c5cccc(Cl)c5)O[C@@H]4CC[C@@]3(C)[C@@H]1CC(C1=CCOC1=O)O2 (stereo not given in full) ?
A) NO

Q) Per the records of this test, what outcome belongs to CCCCCCn1c(O)c(N=Nc2nc(-c3cc4ccccc4oc3=O)cs2)c2ccccc21 ?
A) YES

Q) Hey, what did the test say about Cc1c(C(=O)NNC(=O)c2ccc(Cl)cc2)nnn1-c1ccc(Br)cc1 ?
A) NO

Q) What call does the record list for CCOc1ccc(C(=O)NC(=S)Nc2ccc(S(N)(=O)=O)cc2)cc1 ?
A) NO

Q) Check the results log: what was the call for CCCCSc1nc(Nc2ccc(C(C)=O)cc2)c(C#N)c(-c2ccc(OC)cc2)n1 ?
A) NO

Q) Call for entry O=C(/C=C/c1cccc(OCc2ccccc2)c1)c1nc2ccccc2[nH]1 :
A) NO

Q) What was the test verdict on COc1c(F)ccc(C(=O)Nc2ccc3nc(NC(=O)C4CCCN(S(=O)(=O)c5cccc(Cl)c5)C4)sc3c2)c1F (stereo not given) ?
A) NO
